- MEASUREMENT NOTES: Apparent permeability from basolateral to apical side of human Caco-2 cells at 50 uM in presence of iodoacetamide
- Format: ADME, cell-based
- CONDITION NOTES: Caco-2, with iodoacetamide (concentration not stated)
QUANTITY KIND: Papp B→A at 50 µM (×10⁻⁶ cm/s)
Answer format: numeric, ×10⁻⁶ cm/s implied, no suffix.

Query: What does the data say about its Papp B→A at 50 µM? Entry: "Cc1cc(=O)c2c(O)cc(O[C@@H]3O[C@H](COC(=O)C4=CC[C@H](C(C)(C)O)CC4)[C@@H](O)[C@H](O)[C@H]3O)cc2o1"
Result: 2.46

---

- MEASUREMENT NOTES: Drug level in Caco-2 cells assessed as total recovery rate at 50 uM after 180 mins
- Assay type: ADME, cell-based
- CONDITION NOTES: human, read-out: Drug uptake
QUANTITY KIND: recovery at 3 h, 50 µM (%)
Answer format: numeric, % implied, no suffix.

Example entries begin here.
COMPOUND	UNIT LABEL	recovery at 3 h, 50 µM
CC(C)C[C@H](c1c(O)c(C=O)c(O)c(C=O)c1O)[C@@]1(C)CC[C@@H]2[C@@H]1[C@H]1[C@@H](CC[C@@]2(C)O)C1(C)C [MACROCARPAL B]	%	55.5
CC(C)C[C@@H](c1c(O)c(C=O)c(O)c(C=O)c1O)[C@@]1(C)CC[C@@H]2[C@@H]1[C@H]1[C@@H](CC[C@@]2(C)O)C1(C)C [MACROCARPAL A]	%	75.7

Okay, next one:
Query: What does the data say about its recovery at 3 h, 50 µM? Entry: Cc1cc(=O)c2c(O)cc(O[C@@H]3O[C@H](COC(=O)C4=CC[C@H](C(C)(C)O)CC4)[C@@H](O)[C@H](O)[C@H]3O)cc2o1 [CYPELLOCARPA C]
Result: 52.5

---

Reported values of Papp A→B at 1.5 h, 30 µM for individual entries
- MEASUREMENT NOTES: Apparent permeability from apical to basolateral side of human Caco-2 cells at 30 uM after 90 mins
- Assay type: ADME, cell-based
Answer format: numeric, ×10⁻⁶ cm/s implied, no suffix.

Example entries begin here.
CC(C)C[C@@H](c1c(O)c(C=O)c(O)c(C=O)c1O)[C@@]1(C)CC[C@@H]2[C@@H]1[C@H]1[C@@H](CC[C@@]2(C)O)C1(C)C 1.66
CC(C)C[C@H](c1c(O)c(C=O)c(O)c(C=O)c1O)[C@@]1(C)CC[C@@H]2[C@@H]1[C@H]1[C@@H](CC[C@@]2(C)O)C1(C)C 2.29

Okay, next one:
Query: What does the data say about its Papp A→B at 1.5 h, 30 µM? Entry: "Cc1cc(=O)c2c(O)cc(O[C@@H]3O[C@H](COC(=O)C4=CC[C@H](C(C)(C)O)CC4)[C@@H](O)[C@H](O)[C@H]3O)cc2o1"
Result: 7.4

---

- MEASUREMENT NOTES: Apparent permeability from apical to basolateral side of human Caco-2 cells at 50 uM in presence of iodoacetamide
- Format: ADME, cell-based
- CONDITION NOTES: Caco-2, with iodoacetamide (concentration not stated)
QUANTITY KIND: Papp A→B at 50 µM (×10⁻⁶ cm/s)
Answer format: numeric, ×10⁻⁶ cm/s implied, no suffix.

Query: What does the data say about its Papp A→B at 50 µM? Entry: "Cc1cc(=O)c2c(O)cc(O[C@@H]3O[C@H](COC(=O)C4=CC[C@H](C(C)(C)O)CC4)[C@@H](O)[C@H](O)[C@H]3O)cc2o1"
Result: 0.897
